- Measured On: hKOR (Homo sapiens)
- Construct: β-galactosidase enzyme fragment for EFC (ProLink tag of the PathHunter system; name and presence on the receptor from own knowledge)
- Sequence (P41145 whole entry, the tested form may be a part): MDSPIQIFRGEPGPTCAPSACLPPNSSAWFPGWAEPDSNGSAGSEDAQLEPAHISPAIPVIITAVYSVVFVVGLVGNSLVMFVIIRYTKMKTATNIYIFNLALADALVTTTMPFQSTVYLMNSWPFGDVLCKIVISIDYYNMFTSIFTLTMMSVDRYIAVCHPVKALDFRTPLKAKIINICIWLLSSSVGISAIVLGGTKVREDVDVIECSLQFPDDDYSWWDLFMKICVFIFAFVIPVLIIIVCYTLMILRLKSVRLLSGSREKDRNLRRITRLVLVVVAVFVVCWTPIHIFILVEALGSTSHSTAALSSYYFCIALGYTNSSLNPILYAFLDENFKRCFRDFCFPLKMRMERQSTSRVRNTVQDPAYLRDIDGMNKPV
- Protocol Text: cell-based
- Experimental Setup: βarrestin2 pEC50
pEC50 overview
In plain terms, pEC50 is the concentration in mol/L turned into minus its base-10 logarithm.

Some solved cases for reference:
COC(=O)C1CC(OC(C)=O)C(=O)C2C3CC(c4ccccc4)CC(=NO)C3CCC12C (stereo not shown): 7.37
COC(=O)C1CC(OC(C)=O)C(=O)C2C3CC(c4ccccc4)CC(=NOC(C)=O)C3CCC12C (stereo not shown): 7.01
COC(=O)C1CC(OC(C)=O)C(=O)C2C3CC(c4ccoc4)CC(O)C3CCC12C (stereo not shown) [41a]: 6.91
C#CC1(O)CC(c2ccccc2)CC2C1CCC1(C)C(C(=O)OC)CC(OC(C)=O)C(=O)C21 (stereo not shown) [40a]: 6.13
COC(=O)[C@@H]1C[C@H](OC(C)=O)C(=O)[C@@H]2[C@H]3C[C@@H](c4ccccc4)CC(=O)[C@@H]3CC[C@]21C [24a]: 6.66
COC(=O)[C@@H]1C[C@H](OC(C)=O)C(=O)[C@@H]2[C@H]3C[C@@H](c4ccc(Cl)cc4)CC(=O)[C@@H]3CC[C@]21C: 6.07

Supply measured pEC50 of COC(=O)[C@@H]1C[C@H](OC(C)=O)C(=O)[C@@H]2[C@H]3C[C@@H](c4cccnc4)CC(=O)[C@@H]3CC[C@]21C in your reply.
5.69

Supply measured pEC50 of COC(=O)[C@@H]1C[C@H](OC(C)=O)C(=O)[C@@H]2[C@H]3C[C@@H](c4cccc(C)c4)CC(=O)[C@@H]3CC[C@]21C in your reply.
6.10

Source: paper PMC10450872
